- Tested System: T1, cyno CD137 on DO11.10-cCD137 cells (cynomolgus, UniProt Q07011 24-255 (human entry))
- T1 construct: full-length cyno CD137 over-expressed on DO11.10 cells; also called cell surface-expressed cyno CD137
- T1 chain: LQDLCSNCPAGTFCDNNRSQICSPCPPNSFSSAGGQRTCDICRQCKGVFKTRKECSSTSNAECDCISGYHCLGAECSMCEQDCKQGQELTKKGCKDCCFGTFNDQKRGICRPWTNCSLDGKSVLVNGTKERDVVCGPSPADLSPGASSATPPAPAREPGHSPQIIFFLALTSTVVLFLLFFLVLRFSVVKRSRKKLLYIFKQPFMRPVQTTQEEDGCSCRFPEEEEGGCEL
- Method Description: flow cytometry on DO11.10-cCD137 cells, GMFI vs concentration
Quantity Kind: EC50 (pM)
Answer format: numeric, pM implied, no suffix.

The following binders have reported results that may help.
INSERT INTO measurements (binder, reported_result) VALUES
  ('G1AA/FS30-10 (antibody, human IgG1, kappa, L234A L235A, V domains shown, human IgG1 with LALA mutation in CH2; also called FS30-10 mAb) VH: EVQLLESGGGLVQPGGSLRLSCAASGFTFSSYDMSWVRQAPGKGLEWVSDIDPTGSKTDYADSVKGRFTISRDNSKNTLYLQMNSLRAEDTAVYYCARDLMVYGFDYWGQGTLVTVSS VL: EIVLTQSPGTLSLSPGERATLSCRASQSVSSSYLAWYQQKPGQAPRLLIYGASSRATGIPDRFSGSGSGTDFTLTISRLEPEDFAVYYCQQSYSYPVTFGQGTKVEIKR', 570),
  ('G1AA/FS30-5 (antibody, human IgG1, kappa, L234A L235A, V domains shown, human IgG1 with LALA mutation in CH2; also called FS30-5 mAb) VH: EVQLLESGGGLVQPGGSLRLNCAASGFTFSSYAMSWVRQAPGKGLEWVSAISGSGGSTYYADSVKGRFTISRDNSKNTLYLQMNSLRAEDTAVYYCARSYDKYWGSSMYSGMDYWGQGTLVTVSS VL: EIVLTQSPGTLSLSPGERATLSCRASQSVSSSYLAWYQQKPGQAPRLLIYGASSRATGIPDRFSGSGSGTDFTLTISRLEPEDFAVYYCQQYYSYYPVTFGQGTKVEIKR', 450);

Alright, here's another binder for you.
For G1AA/FS30-16 (antibody, human IgG1, kappa, L234A L235A, V domains shown, human IgG1 with LALA mutation in CH2; also called FS30-16 mAb) VH: EVQLLESGGGLVQPGGSLRLSCAASGFTFSNYAMHWVRQAPGKGLEWVSTIDPTDGATNYADSVKGRFTISRDNSKNTLYLQMNSLRAEDTAVYYCARSKYYTYMQYVALDYWGQGTLVTVSS VL: EIVLTQSPGTLSLSPGERATLSCRASQSVSSSYLAWYQQKPGQAPRLLIYGASSRATGIPDRFSGSGSGTDFTLTISRLEPEDFAVYYCQQGSRFFPITFGQGTKVEIKR the binder record lists EC50 as 360
